Reference for the values: a melting point compilation (Tetko et al.; mined from patent text by program, amines drawn as free bases though some values may be those of a salt)

Parameter melting point: see the listing below.

- CCOc1ccccc1-c1nc2n(C3CCCC3)[nH]c(CC)c-2c(=O)n1: 146 to 147 °C

From here, focus on the item given below.
Returns the measured melting point for the input compound. Input: O=C(O)c1cccc2c1NCCC2C(=O)O (stereo not drawn)
215 to 216 °C

====

Parameter melting point: see the listing below.

See these solved cases before continuing.
• N=C(NCc1ccccc1)NN=Cc1ccc(Cl)cc1Cl = 139 to 141 °C
• CON=Cc1ncn2c1CN(C)C(=O)c1c(Cl)cccc1-2 = 173 to 174 °C
• CNc1cc(C(C)=O)ccc1OCCCCl = 115 to 117 °C
• Cc1ccc(-c2c(C(=O)NCc3cc(C(F)(F)F)cc(C(F)(F)F)c3)oc(=O)c3cnccc23)cc1 = 188 to 189 °C

From here, focus on the item given below.
Returns the measured melting point for the input molecule. Input: CCOC(=O)CNC(=O)C1(CC)CCCCCCC1
65 to 67 °C

====

Parameter melting point: see the listing below.

Returns the measured melting point for the input compound. Input: CC(=O)c1coc(S(N)(=O)=O)c1
135 to 136 °C

Returns the measured melting point for the input compound. Input: CCOC(=O)c1cn(-c2ccccc2)nc1NC=O
135 to 136 °C

Returns the measured melting point for the input compound. Input: Cc1nn(-c2cc(I)c(Cl)cc2F)c(=O)n1C(F)F
125 to 127 °C

Returns the measured melting point for the input compound. Input: Nc1cc(CBr)nn1-c1c(Cl)cc(C(F)(F)F)cc1Cl
220 °C

Returns the measured melting point for the input compound. Input: COc1ccc(-c2cc(F)c(F)cc2-c2ccc(S(C)(=O)=O)cc2)cc1OC
140 to 141 °C

Returns the measured melting point for the input compound. Input: C[C@H]1[C@@H](CO)CCN1c1ccc(C#N)c2ccccc12
158 to 159 °C

Returns the measured melting point for the input compound. Input: Cc1c(S(=O)(=O)C(F)(F)F)cc(-c2ccc(S(C)(=O)=O)cc2)n1-c1ccc(F)cc1
162 to 164 °C

Returns the measured melting point for the input compound. Input: O=C(NCCO)C1CCNCC1
107 to 108 °C

Returns the measured melting point for the input compound. Input: CCC1(C)CC(=O)C(C(=O)Nc2cc(C(F)(F)F)cc(C(F)(F)F)c2)C(=O)C1 (centres undefined)
72 to 73 °C

Returns the measured melting point for the input compound. Input: O=[N+]([O-])c1cccc(SC(CCl)S(=O)(=O)c2cccc([N+](=O)[O-])c2)c1 (centres undefined)
98 to 110 °C

Returns the measured melting point for the input compound. Input: O=C1C=C(CCCCC#CCCCC#CCO)C(=O)c2ccccc21
88 to 89.5 °C

Returns the measured melting point for the input compound. Input: CC12C=CC(=O)C=C1CCC1C3CC4OCOC4(C(=O)CO)C3(C)CC(O)C12F (centres undefined)
262 °C

Returns the measured melting point for the input compound. Input: Cc1cc(N(C)CCO)cc(C)n1
139 to 144 °C

Returns the measured melting point for the input compound. Input: CCc1ccc(S(=O)(=O)N(c2ccc(Cl)cc2[N+](=O)[O-])C(C)C)cc1
117 to 118 °C

Returns the measured melting point for the input compound. Input: CC(C)(C)c1cnc(C(=O)Nc2cc(-c3cc(NC4CCCNC4)c(=O)[nH]n3)ccc2F)cn1 (centres undefined)
140 to 141 °C
